pKi: −log10 of the molar value.
A compilation of published pKi results with UniProtKB P31391.
Sequence (P31391 whole entry): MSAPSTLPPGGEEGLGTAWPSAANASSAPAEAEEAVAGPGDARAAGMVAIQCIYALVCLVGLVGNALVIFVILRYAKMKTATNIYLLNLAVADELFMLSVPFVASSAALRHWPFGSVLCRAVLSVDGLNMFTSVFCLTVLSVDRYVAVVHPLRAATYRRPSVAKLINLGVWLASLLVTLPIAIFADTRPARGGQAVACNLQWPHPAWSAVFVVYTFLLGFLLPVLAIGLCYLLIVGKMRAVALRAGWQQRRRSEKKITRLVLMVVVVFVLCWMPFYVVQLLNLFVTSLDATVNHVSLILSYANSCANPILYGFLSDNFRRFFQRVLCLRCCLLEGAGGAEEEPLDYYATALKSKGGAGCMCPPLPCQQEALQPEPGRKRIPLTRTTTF
reported metric: pKi

Would you please look over these solved cases?
INSERT INTO measurements (molecule, measured_value) VALUES
  ('NCCCCCNC(=O)[C@@H](Cc1c[nH]c2ccccc12)NC(=O)N1CCC2(C=Cc3ccccc32)CC1', 5.16),
  ('C[C@@H](O)CN1CCC(=O)N(Cc2ccccc2)CCC(=O)N(CCc2c[nH]c3ccccc23)CCC(=O)N(CCCCN)CCC1=O', 5.31),
  ('CC(C)[C@@H]1NC(=O)[C@H](CCCCN)NC(=O)[C@@H](Cc2c[nH]c3ccccc23)NC(=O)[C@H](Cc2cccnc2)NC(=O)[C@H](NC(=O)[C@@H](N)Cc2ccc(Cl)cc2)CSSC[C@@H](C(=O)N[C@@H](Cc2ccc(Cl)cc2)C(N)=O)NC1=O', 6.52),
  ('NCCCCCOC[C@H]1O[C@@H](OCCc2c[nH]c3ccccc23)[C@H](OCc2ccccc2)[C@@H](OCc2ccccc2)[C@@H]1OCc1c[nH]cn1', 5.98);

a = CC(C)CCO[C@@H]1[C@@H](O)[C@@H](O)[C@H]2Cn3cc(nn3)COCCCCCCN(CCc3c[nH]c4ccccc34)CC[C@H]1O2
b = CC(C)[C@@H]1NC(=O)[C@H](CCCCN)NC(=O)[C@@H](Cc2c[nH]c3ccccc23)NC(=O)[C@H](Cc2cccnc2)NC(=O)[C@H](NC(=O)[C@@H](N)Cc2c(F)c(F)c(F)c(F)c2F)CSSC[C@@H](C(=O)N[C@@H](Cc2c(F)c(F)c(F)c(F)c2F)C(N)=O)NC1=O
c = NCCCCCOC[C@@H]1O[C@H](OCCc2c[nH]c3ccccc23)[C@H](OCc2cnc[nH]2)C(OCc2ccccc2)[C@H]1OCc1ccccc1 (single isomer, unassigned; (+))
Ascending by pKi, please. Your answer should be the labels, listed in the requested order.
a, b, c
(a: 4.68, b: 6.75, c: 7.00)
